Test: melting temperature; fluorescence melt of hairpins on a sequencing array, two-state fit, raised by 9.35 °C to match UV melts
Details: sodium 0.088 M
Readout: Tm (°C)
Supply the numeric figure in °C, leaving out any unit text.

{"columns": ["Chain", "Obs value"],
 "data": [
  ["GAAGGAGGAAACTCCTCC (.(((((....))))).)", 40.9],
  ["GGAGACGAAAGTCTCTCC ((((((....)))..)))", 54.5],
  ["GTCTTAGGAAACCAAGAC (((((.(....).)))))", 34.4],
  ["GCGGCGAACCGC ((((....))))", 56.9]
]}

[in] Any idea what its Tm is? The sequence is GATCTAACGGTAGATC ((((((....))))))
[out] 40.5

[in] Any idea what its Tm is? The sequence is GTCGACGGAAACGTCAAC ((.((((....)))).))
[out] 43.5

[in] Any idea what its Tm is? The sequence is GATCACGAAAGTGAAATC ((((((....)))..)))
[out] 30.2

---

Experiment: folding enthalpy; higher = less favourable; fluorescence melt of hairpins on a sequencing array, two-state fit
Conditions: sodium 0.088 M
Readout: folding enthalpy (kcal/mol)
Supply the numeric figure in kcal/mol, leaving out any unit text.

// below: answered sequences
{"columns": ["Chain", "Unit annotation", "folding enthalpy"],
 "data": [
  ["GCAGCTGGAAACAACTGC ((((.((....)).))))", "kcal/mol", -39.9],
  ["GCCCGCCGAAAGGCGGC (((.(((....))))))", "kcal/mol", -7.03],
  ["GCTTCCGAAAGGAATAGC ((((((....)))..)))", "kcal/mol", -17.8],
  ["GCGCCGCGAAAGCTGGGC ((.(.((....)).).))", "kcal/mol", -16.1],
  ["GAATCTGGAAACAGACTC ((.((((....)))).))", "kcal/mol", -17.7]
]}

[in] Any idea what its folding enthalpy is? The sequence is GTTCGAGGAAACTCAAAC (((.(((....))).)))
[out] -13.8

---

Assay: folding enthalpy; higher = less favourable; fluorescence melt of hairpins on a sequencing array, two-state fit
Conditions: sodium 0.088 M
Readout: folding enthalpy (kcal/mol)
Supply the numeric figure in kcal/mol, leaving out any unit text.

// below: answered sequences
{"columns": ["Chain", "folding enthalpy, kcal/mol"],
 "data": [
  ["GTTCGAGCGAAAGCTAAC (((..(((....))))))", -7.3],
  ["GCTACACGAAAGTGCAGC (((.(((....))).)))", -42.1],
  ["TTCGTGAAAACGAA (((((....)))))", -20.2]
]}

[in] Any idea what its folding enthalpy is? The sequence is GCGTTTGGACGC ((((....))))
[out] -19.2

[in] Any idea what its folding enthalpy is? The sequence is GCCGCGCGAAAGCCGGGC (((..((....))..)))
[out] -18.5

[in] Any idea what its folding enthalpy is? The sequence is GATCTAGACCTAGATC ((((((....))))))
[out] -32.8

[in] Any idea what its folding enthalpy is? The sequence is GTAGTTCGAAAGAAGTAC (((.(((....))).)))
[out] -25

[in] Any idea what its folding enthalpy is? The sequence is GATCTAGGCATAGATC ((((((....))))))
[out] -36.9

Reference source: the array DNA melting data of Ke et al. (doi:10.1101/2024.01.08.574731)
